# study.target: CD47 on CCRF-CEM cells (human, UniProt Q08722 19-323)
# Sequence (Q08722 19-323): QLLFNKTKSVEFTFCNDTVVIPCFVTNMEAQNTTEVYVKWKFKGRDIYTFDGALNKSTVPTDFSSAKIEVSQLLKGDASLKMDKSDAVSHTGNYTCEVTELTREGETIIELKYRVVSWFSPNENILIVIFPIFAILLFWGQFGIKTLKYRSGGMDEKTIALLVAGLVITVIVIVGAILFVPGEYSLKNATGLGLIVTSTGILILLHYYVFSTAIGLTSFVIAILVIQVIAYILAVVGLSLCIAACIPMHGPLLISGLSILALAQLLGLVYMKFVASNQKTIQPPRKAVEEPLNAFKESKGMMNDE
# method.summary: cell-based or functional assay
Reported values of Phagocytosis EC50 (ug/mL), Donor 1 for individual entries
Number only, in µg/mL; omit the unit.

Answered examples (2):
| binder | u | Phagocytosis EC50 (ug/mL), Donor 1 |
| --- | --- | --- |
| Ab1119/Ab170 (LC Ab1119, HC Ab170) anti-CD47 antibody (antibody, V domains shown, Variant of AbParental) VH: QMQLVQSGAEVKKPGSSVKVSCKASGFNIKDYYLHWVRQAPGKGLEWMGWIDPDQGDTEYAQKFQGRVTITRDRSTSTAYMELRSLRSEDTAVYYCNAAYGSSSYPMDYWGQGTTVTVSS VL: NIQMTQSPSSLSASVGDRVTITCRASQDIHRYLSWFQQKPGKVPKHLIYRANRLVSGVPSRFSGSGSGTEFTLTISSLQPEDFATYYCLQYDEFPYTFGGGTKVEIK | µg/mL | 0.15 |
| Ab495/Ab356 (LC Ab495, HC Ab356) anti-CD47 antibody (antibody, V domains shown, Framework variant of AbParental) VH: QMQLVQSGAEVKKPGSSVKVSCKASGFNIKDYYLHWVRQAPGKGLEWMGWIDPDQGDTEYAQKFQGRVTITRDRSTSTAYMELRSLRAEDTAVYYCNAAYGSSSYPMDYWGQGTTVTVSS VL: NIQMTQSPSSLSASVGDRVTITCKASQDIHRYLSWYQQKPGKAPKHLIYRANRLVSGVPSRFSGSGSGTEFTLTISSLQPEDFATYYCLQYDEFPYTFGGGTKVEIK | µg/mL | 0.68 |

Proceeding to the next binder to report its Phagocytosis EC50 (ug/mL), Donor 1.
**Q:** Report Phagocytosis EC50 (ug/mL), Donor 1 for Ab480/Ab1120 (HC Ab480, LC Ab1120) anti-CD47 antibody (antibody, V domains shown, FR and CDR L2 variant of AbParental) VH: QMQLVQSGAEVKKPGSSVKVSCKASGFNIKDYYLHWVRQAPGKGLEWMGWIDPDQGDTEYAQKFQGRVTITRDRSTSTAYMELRSLRAEDTAVYYCNAAYGSSSYPMDYWGQGTLVTVSS VL: NIQMTQSPSSLSASVGDRVTITCRASQDIHRYLSWFQQKPGKVPKHLIYRYVRFVDGVPSRFSGSGSGTEFTLTISSLQPEDFATYYCLQYDEFPYTFGGGTKVEIK please.
**A:** 0.73
